Data origin: the Human Domainome abundance scans (Beltran et al. 2025)

Listed next: entries and their corresponding abundance fitness.
B1: Chromodomain-helicase-DNA-binding protein 5, residues 411 to 463; numbered along this chain, Q8TDI0 (parent)
chain: EEDDHMEFCRVCKDGGELLCCDACPSSYHLHCLNPPLPEIPNGEWLCPRCTCP

Variants of: B1
Assay: abundance fitness (aPCA) (normalised: wild type 0, dead -1); higher = more abundant; growth selection in yeast, the domain comes from the species named
Details: Homo sapiens

// query Please report the recorded abundance fitness for P48I .
// result -0.312

// query Could you share which abundance fitness value was measured for L18R ?
// result -0.084

// query Name the reported abundance fitness value associated with the variant R49T
// result 0.112
